# Lookup of reported pIC50 keyed by entry
- experimental.system: DYRK1A (Homo sapiens, UniProt Q13627)
- Construct: made in house
- experiment.description: Protein kinase catalytic activity assay, DYRK1A
- Format: biochemical
- condition.details: read-out: IC50 of protein kinases, DYRK1A
Please report pIC50 as the negative decimal logarithm of the molar concentration, giving only the number.

Worked examples follow.
> print(dat)
                                   molecule  attribute.measured  observed.measurement
1  CC[C@@H](Nc1nc(NCc2cccc(C(F)(F)F)c2)c2ncn(C(C)C)c2n1)C(=O)O               pIC50                  5.05
2  CC[C@@H](Nc1nc(NCc2ccccc2)c2ncn(C(C)C)c2n1)C(=O)O [M3, reference compound]               pIC50                  4.72
3  CC[C@@H](Nc1nc(NCc2cccc(Cl)c2)c2ncn(C3CCCC3)c2n1)C(=O)O               pIC50                  4.89

Now look at this entry.
Query: What measured pIC50 goes with CC[C@@H](Nc1nc(NCc2cccc(C(F)(F)F)c2)c2ncn(C3CCCC3)c2n1)C(=O)O ?
Reply: 4.68

---

- experimental.system: CDK9/T (Homo sapiens, UniProt P50750)
- Sequence (P50750 whole entry, species assumed): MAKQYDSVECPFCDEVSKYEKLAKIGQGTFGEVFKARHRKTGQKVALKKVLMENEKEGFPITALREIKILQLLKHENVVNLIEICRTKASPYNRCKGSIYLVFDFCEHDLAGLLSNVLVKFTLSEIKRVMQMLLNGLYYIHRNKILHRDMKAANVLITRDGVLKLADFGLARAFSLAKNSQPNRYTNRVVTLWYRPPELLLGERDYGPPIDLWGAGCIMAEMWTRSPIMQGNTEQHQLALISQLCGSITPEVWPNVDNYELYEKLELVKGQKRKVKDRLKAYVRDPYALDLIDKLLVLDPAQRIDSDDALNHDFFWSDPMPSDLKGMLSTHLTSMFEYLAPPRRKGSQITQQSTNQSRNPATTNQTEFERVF
- Sequence (O60563 whole entry partner, species assumed): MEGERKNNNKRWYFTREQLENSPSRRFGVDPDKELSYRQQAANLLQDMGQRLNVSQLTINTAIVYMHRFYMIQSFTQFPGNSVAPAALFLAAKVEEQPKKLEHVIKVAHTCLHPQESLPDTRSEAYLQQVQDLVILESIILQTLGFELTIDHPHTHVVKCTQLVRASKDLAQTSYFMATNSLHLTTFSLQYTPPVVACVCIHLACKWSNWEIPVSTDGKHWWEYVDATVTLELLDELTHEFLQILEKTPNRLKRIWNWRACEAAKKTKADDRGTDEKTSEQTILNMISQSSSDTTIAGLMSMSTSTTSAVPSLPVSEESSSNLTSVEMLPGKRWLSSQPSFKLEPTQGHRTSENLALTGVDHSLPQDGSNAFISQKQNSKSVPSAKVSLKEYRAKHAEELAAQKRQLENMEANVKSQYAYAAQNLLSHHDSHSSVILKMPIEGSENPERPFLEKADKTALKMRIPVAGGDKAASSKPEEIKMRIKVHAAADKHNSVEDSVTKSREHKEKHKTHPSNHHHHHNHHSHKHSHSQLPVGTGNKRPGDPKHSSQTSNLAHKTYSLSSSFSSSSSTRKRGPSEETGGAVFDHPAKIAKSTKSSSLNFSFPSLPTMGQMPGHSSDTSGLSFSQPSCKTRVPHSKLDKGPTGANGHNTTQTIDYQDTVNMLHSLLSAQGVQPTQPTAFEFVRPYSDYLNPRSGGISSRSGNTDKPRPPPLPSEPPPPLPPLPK
- experiment.description: Protein kinase catalytic activity assay, CDK9/cyclin T
- condition.details: activator cyclin T; read-out: IC50 of protein kinases, CDK9/T
Param label: returns Y when IC50 < 9 µM, returns N otherwise, including exact equality.

> print(dat)
                                   compound  class
1  CC[C@@H](Nc1nc(NCc2ccc(F)c(F)c2)c2ncn(C3CCCC3)c2n1)C(=O)O [MRT2-241]      Y
2  CC(C)n1cnc2c(NCc3ccccc3)nc(N[C@@H](CO)C(=O)O)nc21 [MRT2-164]      N
3  CC[C@@H](Nc1nc(NCc2cccc(F)c2)c2ncn(C3CCCC3)c2n1)C(=O)O [MRT2-235]      Y

Query: # TODO verify IC50 < 9 µM strictly for this compound: CC[C@@H](Nc1nc(NCc2ccccc2)c2ncn(C3CCCC3)c2n1)C(=O)O [MRT2-245]
Reply: N
